target: ATPase family AAA domain-containing protein 2 (Homo sapiens, UniProt Q6PL18); assay: Displacement of SGRG-K(Ac)-GG-K(Ac)-GLG-K(Ac)-GGAKRHRKV-biotin) from His6/FLAG-tagged TEV fused ATAD2 bromodomain (981 to 1121 residues) (unknown origin) expressed in Escherichia coli BL21(DE3) cells after 30 mins by TR-FRET assay
Sequence (Q6PL18 whole entry, the tested form may be a part): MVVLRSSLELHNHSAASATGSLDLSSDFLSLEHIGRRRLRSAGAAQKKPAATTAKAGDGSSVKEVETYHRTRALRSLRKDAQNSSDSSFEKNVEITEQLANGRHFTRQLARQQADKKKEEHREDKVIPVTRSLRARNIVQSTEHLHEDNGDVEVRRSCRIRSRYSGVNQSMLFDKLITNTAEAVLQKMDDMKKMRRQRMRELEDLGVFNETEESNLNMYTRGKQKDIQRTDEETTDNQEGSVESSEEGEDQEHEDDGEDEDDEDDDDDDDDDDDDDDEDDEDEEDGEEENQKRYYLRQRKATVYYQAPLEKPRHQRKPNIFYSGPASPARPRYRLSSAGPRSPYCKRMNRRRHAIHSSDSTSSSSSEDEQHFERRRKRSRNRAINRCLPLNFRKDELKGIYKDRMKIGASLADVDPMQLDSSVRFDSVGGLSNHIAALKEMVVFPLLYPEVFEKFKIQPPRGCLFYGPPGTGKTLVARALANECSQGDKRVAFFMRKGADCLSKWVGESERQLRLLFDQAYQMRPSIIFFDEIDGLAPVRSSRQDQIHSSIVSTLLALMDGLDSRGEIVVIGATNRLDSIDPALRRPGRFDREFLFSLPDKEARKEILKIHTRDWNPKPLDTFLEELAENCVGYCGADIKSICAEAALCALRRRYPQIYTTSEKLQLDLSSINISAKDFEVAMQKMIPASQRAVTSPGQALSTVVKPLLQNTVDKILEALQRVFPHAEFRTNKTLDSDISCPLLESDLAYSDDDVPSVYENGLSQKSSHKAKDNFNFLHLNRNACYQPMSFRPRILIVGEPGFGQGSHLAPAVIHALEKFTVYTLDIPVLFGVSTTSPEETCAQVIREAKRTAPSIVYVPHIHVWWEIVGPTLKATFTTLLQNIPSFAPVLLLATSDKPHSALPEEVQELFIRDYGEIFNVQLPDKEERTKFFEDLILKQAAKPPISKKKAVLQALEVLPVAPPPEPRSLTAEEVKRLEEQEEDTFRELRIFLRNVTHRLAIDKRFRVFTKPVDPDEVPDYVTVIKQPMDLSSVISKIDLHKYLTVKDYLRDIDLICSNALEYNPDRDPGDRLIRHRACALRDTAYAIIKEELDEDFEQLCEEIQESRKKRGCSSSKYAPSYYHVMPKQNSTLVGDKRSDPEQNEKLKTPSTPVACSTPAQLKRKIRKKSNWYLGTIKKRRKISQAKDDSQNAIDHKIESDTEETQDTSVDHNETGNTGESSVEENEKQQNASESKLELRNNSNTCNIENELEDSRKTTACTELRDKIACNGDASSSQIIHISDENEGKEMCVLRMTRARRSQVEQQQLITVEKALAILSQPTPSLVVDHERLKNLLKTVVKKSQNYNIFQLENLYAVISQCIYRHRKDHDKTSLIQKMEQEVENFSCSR
Lab note: cut-off is 10 µM. Strictly less in IC50 is Fulfilled. Exactly 10 µM or more is Not fulfilled.

Look over these answered cases.
# compound, classification
records = [
    ("CCC(=O)Nc1ccc(N)c(S(=O)(=O)N2CCCCC2)c1", "Not fulfilled"),
    ("CCN(CC)S(=O)(=O)c1cc(NC(=O)CN2C(=O)NC(C)(c3ccccc3)C2=O)ccc1C (centres undefined)", "Not fulfilled"),
    ("O=C(CCNC(=O)c1ccccc1)Nc1ccc(Cl)c(S(=O)(=O)N2CCCCC2)c1", "Not fulfilled"),
    ("CC1(C2CC2)NC(=O)N(CC(=O)Nc2ccc(Cl)c(S(=O)(=O)N3CCCCC3)c2)C1=O (racemic)", "Fulfilled"),
    ("CCC(=O)Nc1ccc(C(F)(F)F)c(S(=O)(=O)N2CCCCC2)c1", "Not fulfilled"),
    ("Cc1ccc(NC(=O)CN2C(=O)NC(C)(C3CC3)C2=O)cc1S(=O)(=O)N1CCCCC1 (centres undefined)", "Not fulfilled"),
]

Here is the next item to consider.
Q: Check if IC50 falls below 10 µM for CN(C)S(=O)(=O)c1cc(NC(=O)CN2C(=O)NC3(CCCc4ccccc43)C2=O)ccc1Cl (centres undefined) .
Ans: Fulfilled
